Values compiled from PubChem BioAssay AID1159580.

method summary: chemical genetic growth profiling, strain panel (AID 1159580);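 further: tested at 20 µM; growth read once vehicle control cultures reached saturation at 30 °C; 1 = growth at the plate median or of vehicle wells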
test parameters: S. cerevisiae deletion strains, growth OD, locus YKL190W, strain CNB1, hits give low values
About 2,000 (36%) of roughly 5,500 compounds were called active. Roughly 18% stayed inconclusive and do not appear here. Some of the results follow.
measurement type: normalized growth
One number for each entry.

compound	measured value
CCN(CC)C(C)CN1c2ccccc2Sc2ccccc21 (stereo not given)	0.985
CCCCC[C@H](CC(=O)NO)C(=O)N[C@H](C(=O)N1CCC[C@H]1CO)C(C)C	1.01

Report normalized growth for each item below.
1. N[C@@H](Cc1cc(I)c(Oc2cc(I)c(O)c(I)c2)c(I)c1)C(=O)O
2. CNCCCN1c2ccccc2CCc2ccccc21

Key:
1. 1.04
2. 1

Report normalized growth for each item below.
1. C[C@@H]1CC2C3C[C@H](F)C4=CC(=O)C=C[C@]4(C)[C@@]3(F)[C@@H](O)C[C@]2(C)[C@@]1(O)C(=O)COC(=O)C(C)(C)C (stereo not given in full)
2. Cc1nn(Cc2n[nH]c(=S)o2)c(C)c1Br
3. CNC(=O)Oc1ccc2c(c1)[C@]1(C)CCN(C)[C@@H]1N2C
4. CCOC(=O)[C@H](CCc1ccccc1)N[C@@H](C)C(=O)N1Cc2ccccc2C[C@H]1C(=O)O
5. O=C(O)Cc1ccccc1I

Key:
[0.997, 1.02, 1.01, 1.01, 1.02]

Report normalized growth for each item below.
1. CO[C@]12C[C@@H](COC(=O)c3cncc(Br)c3)CN(C)[C@@H]1Cc1cn(C)c3cccc2c13
2. COC(=O)CCCOc1ccc(Cl)cc1Cl
3. CCC(=O)c1ccc2c(c1)N(CC(C)N(C)C)c1ccccc1S2 (stereo not given)
4. CCCCSP(=O)(SCCCC)SCCCC
5. COc1ccc(C=Nc2ccc(O)cc2)cc1

Key:
[0.999, 0.99, 0.99, 1.02, 1.02]

Report normalized growth for each item below.
1. O=C(Nc1ccccc1)NC1CCCC1
2. O=c1cc(-c2ccccc2)oc2cc(O)cc(O)c12
3. COc1cc(OC)c2c3c1C(=O)c1c(OC)cc(C)c4c(OC)cc(c-3c14)C(C)(C)C2=O
4. Cc1ccc(/C(N)=N\O)cc1F
5. CC1CCC2(OC1)OC1CC3C4CCC5C[C@@H](O)CCC5(C)C4=CCC3(C)C1[C@@H]2C (stereo not given in full)
6. Cc1cc(C)cc(OCC2CNC(=O)O2)c1 (stereo not given)

Key:
1: 0.991; 2: 0.941; 3: 1; 4: 0.988; 5: 0.992; 6: 1.01

----------
method summary: chemical genetic growth profiling, strain panel (AID 1159580);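 further: tested at 20 µM; growth read once vehicle control cultures reached saturation at 30 °C; 1 = growth at the plate median or of vehicle wells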
test parameters: S. cerevisiae strains, growth OD, strain wild type, hits give low values
Among all 5,500 compounds or so, about 2,000 (36%) were called active. Another 18% or so got no clear call; they are omitted. The list shows a part of the results.
Rule for this label: Yes means normalized growth is less than 1; No means normalized growth is at least 1.

molecule	assigned label
NCC(CC(=O)O)c1ccc(Cl)cc1 (configuration not stated)	No

Moving on to the next molecule.
Exercise: Please state whether normalized growth is below 1 for COC(=O)c1c(C)cc(OC(=O)c2c(C)cc(O)c(C=O)c2O)c(C)c1O
Key: Yes
